Test system: 782815-120-R-J1-PDC complex spheroid viability
Experiment: Anticancer human tumor 782815-120-R-J1-PDC patient-derived colon adenocarcinoma cell line growth inhibition [RAS]; active means viability on the fitted dose curve at most 10% of control; inactive means the rest
Details: second compound 0.00949 µM; first compound 0.03 µM
Log the outcome using a class from active, inactive

# Molecule, Discrete Label
data = [
    ("CC1(C)CCC(Nc2ncc(C(F)(F)F)c(-c3c[nH]c4c(P(C)(C)=O)c(C#N)ccc34)n2)CN1 (centres undefined) + CCn1c(-c2cccnc2C(C)OC)c2c3cc(ccc31)N1CCOC(CC(NC(=O)C(C(C)C)N(C)C(=O)C3(F)CCN(C(=O)C#CC(C)(C)N(C)C)CC3)C(=O)N3CCCC(N3)C(=O)OCC(C)(C)C2)C1", "inactive"),
]

[ask] Hey, what did the test say about CCc1c2c(nc3ccc(O)cc13)-c1cc3c(c(=O)n1C2)COC(=O)[C@]3(O)CC + CCn1c(-c2cc(N3CCN(C)CC3)cnc2C(C)OC)c2c3cc(ccc31)-c1csc(n1)CC(NC(=O)C1CC1C)C(=O)N1CCCC(N1)C(=O)OCC(C)(C)C2 ?
[reply] inactive

[ask] Hi, do you know how CCc1c2c(nc3ccc(O)cc13)-c1cc3c(c(=O)n1C2)COC(=O)[C@]3(O)CC + CCn1c(-c2cccnc2C(C)OC)c2c3cc(ccc31)N1CCOC(CC(NC(=O)C(C(C)C)N(C)C(=O)C3(F)CCN(C(=O)C#CC(C)(C)N(C)C)CC3)C(=O)N3CCCC(N3)C(=O)OCC(C)(C)C2)C1 came out in this test?
[reply] active

[ask] Recorded test call requested for CC1(C)CCC(Nc2ncc(C(F)(F)F)c(-c3c[nH]c4c(P(C)(C)=O)c(C#N)ccc34)n2)CN1 (centres undefined) + CCn1c(-c2cc(N3CCN(C)CC3)cnc2C(C)OC)c2c3cc(ccc31)-c1csc(n1)CC(NC(=O)C1CC1C)C(=O)N1CCCC(N1)C(=O)OCC(C)(C)C2
[reply] inactive

----------
Test system: 782815-120-R-J1-PDC complex spheroid viability
Assay: Anticancer human tumor 782815-120-R-J1-PDC cell line growth inhibition [RAS];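 further: spheroids exposed to compounds for 7 days before reading; 100% = DMSO vehicle control viability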
Settings: second compound 0.316 µM; first compound 0.003 µM; active compounds read low
Measured viability, T/C by item
Write the answer as a number in %, unit excluded.

# Compound, Value Measured
measured = [
    ("CC1(C)CCC(Nc2ncc(C(F)(F)F)c(-c3c[nH]c4c(P(C)(C)=O)c(C#N)ccc34)n2)CN1 (centres undefined) + C=CC(=O)N1CCN(c2nc(OCC3CCCN3C)nc3c(F)c(-c4nc(N)cc(C)c4C(F)(F)F)c(Cl)cc23)C(C)C1", 97.2),
    ("CCc1c2c(nc3ccc(O)cc13)-c1cc3c(c(=O)n1C2)COC(=O)[C@]3(O)CC + C#Cc1c(F)ccc2cc(O)cc(-c3ncc4c(N5CC6CCC(C5)N6)nc(OCC56CCCN5CC(F)C6)nc4c3F)c12", 69.3),
    ("CCc1c2c(nc3ccc(O)cc13)-c1cc3c(c(=O)n1C2)COC(=O)[C@]3(O)CC + C=CC(=O)N1CCN(c2nc(OCC3CCCN3C)nc3c(F)c(-c4nc(N)cc(C)c4C(F)(F)F)c(Cl)cc23)C(C)C1", 60.7),
]

[ask] Please tell me the measured viability, T/C for CC1(C)CCC(Nc2ncc(C(F)(F)F)c(-c3c[nH]c4c(P(C)(C)=O)c(C#N)ccc34)n2)CN1 (centres undefined) + C#Cc1c(F)ccc2cc(O)cc(-c3ncc4c(N5CC6CCC(C5)N6)nc(OCC56CCCN5CC(F)C6)nc4c3F)c12 ; system: 782815-120-R-J1-PDC complex spheroid viability.
[reply] 92.9

Reference source: PubChem BioAssay AID2060887
